- Measurement Target: hCA IX (Homo sapiens, UniProt Q16790)
- Construct: recombinant, in-house
- Protocol Details: stopped-flow CO2 hydrase assay
- Run Conditions: read-out: [drawing 1] / 1
Value Kind: pKi
Give bare numbers, as −log10 of the molar value.

query: Fill blank: measured pKi of the molecule Cc1cnc(C(=O)O)c[n+]1[O-] [compound 1, Acipimox] is ____.
result: 5.20
